- Test system: Mycobacterium tuberculosis
- ASSAY OVERVIEW: Antimycobacterial activity against isoniazid and rifampicin resistant Mycobacterium tuberculosis 6133 by MABA method
- Assay type: functional
MEASURED QUANTITY: MIC (µg/mL)
Report the value in µg/mL with no unit label.

{"MOLECULE": "CO/N=C1/CN(c2nc3c(cc2F)c(=O)c(C(=O)O)cn3[C@@H]2C[C@@H]2F)CC1CN (stereo partly drawn)", "EXPERIMENTAL TARGET": "Mycobacterium tuberculosis", "VALUE UNIT": "µg/mL", "ENDPOINT RESULT": 0.125}
{"MOLECULE": "CO/N=C1/CN(c2cc3c(cc2F)c(=O)c(C(=O)O)cn3[C@@H]2C[C@@H]2F)[C@H]1CN", "EXPERIMENTAL TARGET": "Mycobacterium tuberculosis", "VALUE UNIT": "µg/mL", "ENDPOINT RESULT": 0.125}
{"MOLECULE": "CO/N=C1/CN(c2c(F)cc3c(=O)c(C(=O)O)cn([C@@H]4C[C@@H]4F)c3c2OC)[C@H]1CN", "EXPERIMENTAL TARGET": "Mycobacterium tuberculosis", "VALUE UNIT": "µg/mL", "ENDPOINT RESULT": 0.125}
{"MOLECULE": "CCO/N=C1/CN(c2cc3c(cc2F)c(=O)c(C(=O)O)cn3[C@@H]2C[C@@H]2F)CC1CN (stereo partly drawn)", "EXPERIMENTAL TARGET": "Mycobacterium tuberculosis", "VALUE UNIT": "µg/mL", "ENDPOINT RESULT": 0.125}

Asked: Form entry - test system: Mycobacterium tuberculosis; read-out: MIC; molecule: CCO/N=C1/CN(c2nc3c(cc2F)c(=O)c(C(=O)O)cn3[C@@H]2C[C@@H]2F)CC1CN (stereo partly drawn)
Given back: 0.125

Asked: Missing value: MIC, Mycobacterium tuberculosis, entry NCC1CN(c2nc3c(cc2F)c(=O)c(C(=O)O)cn3[C@@H]2C[C@@H]2F)C/C1=N/OCc1ccccc1 (stereo partly drawn) . Fill in?
Given back: 0.125

* * *

- Tested on: Mycobacterium tuberculosis
- ASSAY OVERVIEW: Antimycobacterial activity against isoniazid and rifampicin resistant Mycobacterium tuberculosis 11277 by MABA method
- Assay type: functional
Measured MIC, listed per entry.
Quick note: give the figure in µg/mL, leave out the unit.

{"MOLECULE": "NNC(=O)c1ccncc1 [ISONIAZID]", "EXPERIMENTAL TARGET": "Mycobacterium tuberculosis", "VALUE UNIT": "µg/mL", "ENDPOINT RESULT": 1}
{"MOLECULE": "C[C@H]1COc2c(N3CCN(C)CC3)c(F)cc3c(=O)c(C(=O)O)cn1c23.C[C@H]1COc2c(N3CCN(C)CC3)c(F)cc3c(=O)c(C(=O)O)cn1c23.O [LEVOFLOXACIN]", "EXPERIMENTAL TARGET": "Mycobacterium tuberculosis", "VALUE UNIT": "µg/mL", "ENDPOINT RESULT": 0.125}
{"MOLECULE": "O=C(O)c1cn(C2CC2)c2cc(N3CCNCC3)c(F)cc2c1=O [CIPROFLOXACIN]", "EXPERIMENTAL TARGET": "Mycobacterium tuberculosis", "VALUE UNIT": "µg/mL", "ENDPOINT RESULT": 0.125}
{"MOLECULE": "CCO/N=C1/CN(c2nc3c(cc2F)c(=O)c(C(=O)O)cn3[C@@H]2C[C@@H]2F)CC1CN (stereo partly drawn)", "EXPERIMENTAL TARGET": "Mycobacterium tuberculosis", "VALUE UNIT": "µg/mL", "ENDPOINT RESULT": 0.125}
{"MOLECULE": "CO/N=C1/CN(c2c(F)cc3c(=O)c(C(=O)O)cn([C@@H]4C[C@@H]4F)c3c2OC)[C@H]1CN", "EXPERIMENTAL TARGET": "Mycobacterium tuberculosis", "VALUE UNIT": "µg/mL", "ENDPOINT RESULT": 0.25}
{"MOLECULE": "CO/N=C1/CN(c2nc3c(cc2F)c(=O)c(C(=O)O)cn3[C@@H]2C[C@@H]2F)CC1CN (stereo partly drawn)", "EXPERIMENTAL TARGET": "Mycobacterium tuberculosis", "VALUE UNIT": "µg/mL", "ENDPOINT RESULT": 0.25}

Asked: Quick one: MIC of NCC1CN(c2cc3c(cc2F)c(=O)c(C(=O)O)cn3[C@@H]2C[C@@H]2F)C/C1=N/OCc1ccccc1 (stereo partly drawn) ?
Given back: 0.25

Asked: Looking for the measured MIC of NC[C@H]1/C(=N\OCc2ccccc2)CN1c1cc2c(cc1F)c(=O)c(C(=O)O)cn2[C@@H]1C[C@@H]1F , can you help?
Given back: 0.5

Asked: Which MIC value belongs to CO/N=C1/CCN(c2c(F)cc3c(=O)c(C(=O)O)cn([C@@H]4C[C@@H]4F)c3c2OC)CC1N (stereo partly drawn) ?
Given back: 0.125

Asked: Field request: MIC | item: NCC1CN(c2nc3c(cc2F)c(=O)c(C(=O)O)cn3[C@@H]2C[C@@H]2F)C/C1=N/OCc1ccccc1 (stereo partly drawn)
Given back: 0.5

Asked: // MIC lookup, key: CCO/N=C1/CN(c2cc3c(cc2F)c(=O)c(C(=O)O)cn3[C@@H]2C[C@@H]2F)CC1CN (stereo partly drawn)
Given back: 0.125

Asked: Fill in: MIC of CO/N=C1/CN(c2cc3c(cc2F)c(=O)c(C(=O)O)cn3[C@@H]2C[C@@H]2F)[C@H]1CN is ___
Given back: 0.25

* * *

Listed here are compounds together with their documented MIC.
- Tested on: Mycobacterium tuberculosis
- ASSAY OVERVIEW: Antimycobacterial activity against isoniazid and rifampicin resistant Mycobacterium tuberculosis 6133 by MABA method
- Type: functional
Field format: number, assumed µg/mL, no unit text.

Please review the entries below; each comes with its answer.
{"COMPOUND": "NNC(=O)c1ccncc1", "VALUE UNIT": "µg/mL", "MIC": 4}
{"COMPOUND": "NCC1CN(c2cc3c(cc2F)c(=O)c(C(=O)O)cn3[C@@H]2C[C@@H]2F)C/C1=N/OCc1ccccc1 (some centres not stated)", "VALUE UNIT": "µg/mL", "MIC": 0.125}
{"COMPOUND": "O=C(O)c1cn(C2CC2)c2cc(N3CCNCC3)c(F)cc2c1=O", "VALUE UNIT": "µg/mL", "MIC": 0.125}
{"COMPOUND": "C[C@H]1COc2c(N3CCN(C)CC3)c(F)cc3c(=O)c(C(=O)O)cn1c23.C[C@H]1COc2c(N3CCN(C)CC3)c(F)cc3c(=O)c(C(=O)O)cn1c23.O", "VALUE UNIT": "µg/mL", "MIC": 0.125}
{"COMPOUND": "NC[C@H]1/C(=N\\OCc2ccccc2)CN1c1cc2c(cc1F)c(=O)c(C(=O)O)cn2[C@@H]1C[C@@H]1F", "VALUE UNIT": "µg/mL", "MIC": 0.25}

From here, focus on the item given below.
Asked: Reported MIC for Mycobacterium tuberculosis, given CO/N=C1/CCN(c2c(F)cc3c(=O)c(C(=O)O)cn([C@@H]4C[C@@H]4F)c3c2OC)CC1N (some centres not stated) ?
Given back: 0.0625

Data provenance is ChEMBL document CHEMBL3352227.
